# target-or-system: Cruzipain (Trypanosoma cruzi, UniProt P25779)
# Sequence (P25779 whole entry): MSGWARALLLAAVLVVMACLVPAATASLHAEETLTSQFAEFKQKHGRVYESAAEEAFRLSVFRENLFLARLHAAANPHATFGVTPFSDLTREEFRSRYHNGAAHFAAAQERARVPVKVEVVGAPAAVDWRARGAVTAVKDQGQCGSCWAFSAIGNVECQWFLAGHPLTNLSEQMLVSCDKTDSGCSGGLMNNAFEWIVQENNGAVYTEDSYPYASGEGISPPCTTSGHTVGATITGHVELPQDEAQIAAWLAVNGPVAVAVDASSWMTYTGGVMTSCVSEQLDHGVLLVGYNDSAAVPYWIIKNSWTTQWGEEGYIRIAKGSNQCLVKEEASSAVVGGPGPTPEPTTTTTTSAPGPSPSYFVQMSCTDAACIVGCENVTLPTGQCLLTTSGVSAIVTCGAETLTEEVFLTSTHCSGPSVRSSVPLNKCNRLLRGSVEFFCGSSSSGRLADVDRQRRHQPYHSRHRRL
# protocol-description: Inhibition of Trypanosoma cruzi recombinant cruzain using Z-FR-AMC as substrate at 20 uM preincubated for 10 mins before substrate addition
pIC50: −log10 of the molar value.
quantity-measured: pIC50

- smiles-str: "C/C(COc1ccccc1)=N\\Nc1nc(-c2ccccc2)cs1"
  value-observed: "< 4.70"

----------
# target-or-system: Cruzipain (Trypanosoma cruzi)
# protocol-description: Inhibition of Trypanosoma cruzi recombinant cruzain using Z-FR-AMC as substrate at 100 uM preincubated for 10 mins before substrate addition
Here the recorded inhibition is given for each entry.
quantity-measured: inhibition (%)

- compound: "C/C(COc1ccccc1)=N\\Nc1nc(-c2ccncc2)cs1"
  value-observed: 13.3
- compound: "C/C(COc1ccccc1)=N\\N=C1/NC(=O)C(c2ccccc2)S1 (racemic)"
  value-observed: 63
- compound: "C/C(COc1ccccc1)=N\\Nc1nc(-c2cccs2)cs1"
  value-observed: 30
- compound: "C/C(COc1ccccc1)=N\\Nc1nc(-c2ccco2)cs1"
  value-observed: 4.7

----------
# target-or-system: Procathepsin L (Homo sapiens)
# Sequence (P07711 whole entry): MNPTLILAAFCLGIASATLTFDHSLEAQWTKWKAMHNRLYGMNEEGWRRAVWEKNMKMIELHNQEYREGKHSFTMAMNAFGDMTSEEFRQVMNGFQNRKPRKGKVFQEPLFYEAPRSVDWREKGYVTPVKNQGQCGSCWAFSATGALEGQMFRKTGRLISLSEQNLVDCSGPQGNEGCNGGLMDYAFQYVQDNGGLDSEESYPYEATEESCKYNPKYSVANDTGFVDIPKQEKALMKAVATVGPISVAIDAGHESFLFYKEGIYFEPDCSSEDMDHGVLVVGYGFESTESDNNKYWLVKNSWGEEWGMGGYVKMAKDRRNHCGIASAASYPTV
# protocol-description: Inhibition of recombinant cathepsin L using ZFR-pNA as substrate preincubated for 45 mins
quantity-measured: IC50

- molecule: "C/C(COc1ccccc1)=N\\N=C1\\SC(c2ccccc2)C(=S)N1c1ccccc1 (racemic)"
  value-observed: "10.8 µM"
- molecule: "C/C(COc1ccccc1)=N\\N=C1\\SC(C(C)C)C(=O)N1c1ccccc1 (racemic)"
  value-observed: "> 100 µM"
- molecule: "C/C(COc1ccccc1)=N\\N=C1/NC(=O)CS1"
  value-observed: "> 100 µM"
- molecule: "CCC1S/C(=N/N=C(\\C)COc2ccccc2)NC1=S (racemic)"
  value-observed: "13.8 µM"
- molecule: "CCC1S/C(=N/N=C(\\C)COc2ccccc2)N(C)C1=O (racemic)"
  value-observed: "> 100 µM"
- molecule: "C/C(COc1ccccc1)=N\\N=C1\\SC(C(C)C)C(=O)N1C (racemic)"
  value-observed: "> 100 µM"
- molecule: "CCC1S/C(=N/N=C(\\C)COc2ccccc2)N(c2ccccc2)C1=O (racemic)"
  value-observed: "> 100 µM"
- molecule: "C/C(COc1ccccc1)=N\\N=C1\\SCC(=O)N1c1ccccc1"
  value-observed: "> 100 µM"

----------
pIC50 listing for selected molecules.
# target-or-system: Cruzipain (Trypanosoma cruzi)
# protocol-description: Inhibition of Trypanosoma cruzi recombinant cruzain using Z-FR-AMC as substrate preincubated for 10 mins before substrate addition
# condition-notes: read-out: IC50
pIC50: −log10 of the molar value.
quantity-measured: pIC50

- molecule: "CCC1S/C(=N/N=C(\\C)COc2ccccc2)N(c2ccc(C)cc2)C1=O (racemic)"
  quantity-measured: "pIC50"
  value-observed: 4.93
- molecule: "C/C(COc1ccccc1)=N\\N=C1/NC(=O)C(C(C)C)S1 (racemic)"
  quantity-measured: "pIC50"
  value-observed: 4.72
- molecule: "CCC1S/C(=N/N=C(\\C)COc2ccccc2)NC1=S (racemic)"
  quantity-measured: "pIC50"
  value-observed: 4.73
- molecule: "C/C(COc1ccccc1)=N\\N=C1\\SC(C)C(=O)N1c1ccccc1 (racemic)"
  quantity-measured: "pIC50"
  value-observed: 4.97
- molecule: "CCC1S/C(=N/N=C(\\C)COc2ccccc2)N(c2ccccc2)C1=O (racemic)"
  quantity-measured: "pIC50"
  value-observed: 5.02
- molecule: "C/C(COc1ccccc1)=N\\N=C1\\SCC(=O)N1c1ccccc1"
  quantity-measured: "pIC50"
  value-observed: 4.99
- molecule: "C/C(COc1ccccc1)=N\\N=C1\\SC(c2ccccc2)C(=S)N1c1ccccc1 (racemic)"
  quantity-measured: "pIC50"
  value-observed: 5.15
- molecule: "C/C(COc1ccccc1)=N\\N=C1\\SC(C(C)C)C(=O)N1C (racemic)"
  quantity-measured: "pIC50"
  value-observed: 5.10
- molecule: "CCC1S/C(=N/N=C(\\C)COc2ccccc2)N(C)C1=O (racemic)"
  quantity-measured: "pIC50"
  value-observed: 4.50
- molecule: "C/C(COc1ccccc1)=N\\N=C1\\SC(C(C)C)C(=O)N1c1ccccc1 (racemic)"
  quantity-measured: "pIC50"
  value-observed: 5.18
- molecule: "CCC1S/C(=N/N=C(\\C)COc2ccccc2)N(c2ccc(OC)cc2)C1=O (racemic)"
  quantity-measured: "pIC50"
  value-observed: 5.06
